- Test system: A549 NSCLC
- PROTOCOL_TEXT: NCI tumour cell line growth inhibition, 48 h
READOUT_KIND: GI50

Provide measured GI50 value, entry: "O=C(Nc1nc(-c2c[nH]c3ccccc23)cs1)c1n[nH]c(=O)c2ccccc12"
1.57 µM

Provide measured GI50 value, entry: N#CC(I)CS(=O)(=O)c1ccccc1 (centres undefined)
22.7 µM

Provide measured GI50 value, entry: "C=C(CN(C)Cc1ccccc1)c1ccc(NC(=O)c2ccc(C(=C)CN(C)Cc3ccccc3)cc2)cc1"
77.8 µM

Provide measured GI50 value, entry: "C[C@H](CCOc1cccc(CC(=O)O)c1)N(Cc1cccc(C(F)(F)F)c1Cl)CC(c1ccccc1)c1ccccc1"
3.94 µM

* * *

- System: OVCAR-4 ovarian
- PROTOCOL_TEXT: NCI tumour cell line growth inhibition, 48 h
Outcome: rule met for TGI of at least 20 µM; rule not met for anything lower.

Decide: TGI of CC(C)C1CN(C(=O)OCc2ccccc2)C2N1C(=O)C2(C)OCc1ccccc1 (stereo not given) >= 20 µM?
rule met

Decide: TGI of O=C(O)C(O)C(O)C(O)C(O)CO (stereo not given) >= 20 µM?
rule met

Decide: TGI of "O=C1C(=Nc2ccc(Nc3ccccc3)cc2)Oc2ccccc21" >= 20 µM?
rule not met

Decide: TGI of "Cc1nc2sccn2c1-c1nc2sccn2c1/C=C1/C(=O)Nc2ccccc21" >= 20 µM?
rule met

Decide: TGI of "COc1ccc(/C=N/NC(=O)c2ccc(O)c(CN(C)C)c2)cc1" >= 20 µM?
rule met

Decide: TGI of "CN1CC[C@]2(c3cccc(O)c3)CC(=O)/C(=C/c3ccccc3)[C@@H]1C2" >= 20 µM?
rule not met

Decide: TGI of "CO/N=C(/C(=O)OC)c1ccccc1COc1ccccc1C(F)(F)F" >= 20 µM?
rule met

Decide: TGI of "CNc1[nH]c(=S)nc2sc3c(c12)CCCC3" >= 20 µM?
rule met

Decide: TGI of "C/C1=C\[C@H](C)C[C@H](C)OC(=O)[C@H](C)NC(=O)[C@@H](Cc2ccc(O)c(Br)c2)N(C)C(=O)[C@H](C)NC(=O)[C@@H](C)C1" >= 20 µM?
rule not met

* * *

For each record, write down the corresponding TGI.
- Test system: HS 578T breast
- PROTOCOL_TEXT: NCI tumour cell line growth inhibition, 48 h
Give a bare numeral; the unit µM is implied.

Provide measured TGI value, entry: "CCCCCCCCSC1=C(Cl)C(=O)C(OC)=C(OC)C1=O"
66.6

Provide measured TGI value, entry: "C/C1=C\[C@H](C)C[C@H](C)OC(=O)[C@H](C)NC(=O)[C@@H](Cc2ccc(O)c(Br)c2)N(C)C(=O)[C@H](C)NC(=O)[C@@H](C)C1"
3.76

* * *

For each record, write down the corresponding TGI.
- Tested on: HCT-116 colon
- PROTOCOL_TEXT: NCI tumour cell line growth inhibition, 48 h

Provide measured TGI value, entry: "NC(=O)c1cc(I)ccc1NC(=O)/C=C/c1ccccc1"
> 40.3 µM

Provide measured TGI value, entry: C=CC12CCN(CC1)C(C(O)c1ccnc3ccc(OC)cc13)C2 (stereo not given)
> 100 µM

Provide measured TGI value, entry: "C=C(CN(C)C)C(=O)c1ccc(C(=O)C(=C)CN(C)C)cc1"
> 100 µM

Provide measured TGI value, entry: "C=C(C)[C@@H]1CC[C@]2(CN)CC[C@]3(C)[C@H](CC[C@@H]4[C@@]5(C)CCCNC(C)(C)[C@@H]5CC[C@]43C)[C@@H]12"
2.96 µM

Provide measured TGI value, entry: "Cn1c2ccccc2c2c(=S)c3ccccc3ccc21"
> 100 µM

* * *

- System: A498 renal
- PROTOCOL_TEXT: NCI tumour cell line growth inhibition, 48 h
READOUT_KIND: TGI (µM)
Give a bare numeral; the unit µM is implied.

Provide A498 renal TGI reading for COc1cc(C2c3cc4c(cc3[C@@H](Nc3ccccc3)C3COC(=O)[C@H]23)OCO4)cc(OC)c1O (stereo not given in full) .
1.65

Provide A498 renal TGI reading for "CC1=C(C(=O)Nc2ccccc2)C(c2ccc(Cl)c(Cl)c2)C(C(=O)Nc2ccccc2)=C(C)N1" .
33.4

Provide A498 renal TGI reading for "c1ccc2c(c1)CCc1c(-c3ccncc3)n[nH]c1-2" .
79.8

Provide A498 renal TGI reading for "C/C1=C\[C@H](C)C[C@H](C)OC(=O)[C@H](C)NC(=O)[C@@H](Cc2ccc(O)c(Br)c2)N(C)C(=O)[C@H](C)NC(=O)[C@@H](C)C1" .
0.051

Provide A498 renal TGI reading for "NC(=O)c1cc(I)ccc1NC(=O)/C=C/c1ccccc1" .
13

Provide A498 renal TGI reading for "CCCCOCCOC1=C(Cl)C(=O)c2c(O)ccc(O)c2C1=O" .
4.33

Provide A498 renal TGI reading for "CCSc1nc(N=Cc2ccccc2O)c2cn[nH]c2n1" .
29.2

* * *

- System: EKVX NSCLC
- PROTOCOL_TEXT: NCI tumour cell line growth inhibition, 48 h
Where a SMILES comes first, the peptide text is derived from it. The star is where a group is joined. Palmitoyl = CCCCCCCCCCCCCCCC(=O)*
READOUT_KIND: GI50

Provide measured GI50 value, entry: "CCSc1nc(N=Cc2ccccc2O)c2cn[nH]c2n1"
47.2 µM

Provide measured GI50 value, entry: "CO[C@@H]1CC[C@]2(C)OC[C@H](C)[C@@H]3C[C@@H](C)[C@@H](OC(C)=O)[C@@H]4[C@H]3[C@@H]2O[C@H]4C[C@@]1(C)O"
> 100 µM

Provide measured GI50 value, entry: "Cc1nc2c(Br)cc(Br)cc2c(=O)n1-c1nnc(-c2cccc(Cl)c2Cl)c(N)n1"
22.1 µM

Provide measured GI50 value, entry: "COc1cc2c(cc1OCCCN1CCN(CCCOc3cc4c(cc3OC)C(=O)N3CC(F)(F)C[C@H]3C=N4)CC1)N=C[C@@H]1CC(F)(F)CN1C2=O"
29.1 µM

Provide measured GI50 value, entry: CCCCCCCCCCCCCCCC(=O)N1CCCC1C(=O)NCC(=O)NC(Cc1ccccc1)C(=O)N1CCCC1C(=O)NC(CO)C(=O)NC(Cc1ccc(O)cc1)C(=O)NC(CCCCN)C(=O)NC(CC(C)C)C(=O)NC(CCCN=C(N)N)C(=O)N1CCCC1C(=O)NCC(N)=O (stereo not drawn) (Palmitoyl-PGFPSYKLRPG-NH2; configuration not given here)
15.7 µM

Provide measured GI50 value, entry: "O=C(Nc1ncc(Cc2cccc(C(F)(F)F)c2)s1)c1ccc2c(c1)OCCO2"
0.602 µM

Provide measured GI50 value, entry: "CCOC(=O)Nc1c(C)nc2ccccn12"
> 100 µM

Provide measured GI50 value, entry: "Cc1cccc(NC2=C(Cl)C(=O)c3nc(C)ccc3C2=O)c1"
1.47 µM

* * *

For each record, write down the corresponding GI50.
- Tested on: HT29 colon
- PROTOCOL_TEXT: NCI tumour cell line growth inhibition, 48 h

Provide measured GI50 value, entry: "CO[C@@H]1CC[C@]2(C)OC[C@H](C)[C@@H]3C[C@@H](C)[C@@H](OC(C)=O)[C@@H]4[C@H]3[C@@H]2O[C@H]4C[C@@]1(C)O"
> 100 µM

Provide measured GI50 value, entry: CCCCNCCCNCCCNC(=O)c1csc(-c2csc(CCNC(=O)C(NC(=O)C(C)C(O)C(C)NC(=O)C(NC(=O)c3nc(C(CC(N)=O)NCC(N)C(N)=O)nc(N)c3C)C(OC3OC(CO)C(O)C(O)C3OC3OC(CO)C(O)C(OC(N)=O)C3O)c3cnc[nH]3)C(C)O)n2)n1 (stereo not drawn)
1.73 µM

Provide measured GI50 value, entry: "COc1ccc(Cl)cc1NC(=O)c1ccc(NC2=C(Cl)C(=O)N(Cc3ccccc3)C2=O)cc1"
4.8 µM

* * *

- System: DMS 273 small cell lung
- PROTOCOL_TEXT: NCI tumour cell line growth inhibition, 48 h
READOUT_KIND: TGI

Provide measured TGI value, entry: "O=C1C=C(Nc2ccc(Cl)cc2C(=O)c2ccccc2)c2ccccc2C1=O"
> 100 µM

Provide measured TGI value, entry: "COc1ccc2c(=O)oc3c(OC)cc(CCN(C)C)c4c(=O)oc1c2c34"
31.5 µM

Provide measured TGI value, entry: "O[C@H]1[C@H](O)[C@@H](O)CN2CC[C@H](O)[C@H]12"
> 100 µM

Provide measured TGI value, entry: "O=S(=O)(OI(OI(OS(=O)(=O)C(F)(F)F)c1ccccc1)c1ccccc1)C(F)(F)F"
> 100 µM

Provide measured TGI value, entry: CCOc1ccc(NC(=O)CC2SC(=Nc3ccc(C)cc3C)NC2=O)cc1 (stereo unspecified)
> 100 µM

Provide measured TGI value, entry: "CC12c3ccccc3C(OC=O)(c3ccccc31)C1(C)c3ccccc3C2(OC=O)c2ccccc21"
> 100 µM

Provide measured TGI value, entry: "CCOc1ccc(OCC(=O)O)c2c1CCCC2=O"
> 100 µM

Provide measured TGI value, entry: O/N=C1\CCCCC1C(NO)c1ccccc1 (stereo unspecified)
> 100 µM

Provide measured TGI value, entry: "COc1ccc(CC(N)=O)cc1OC"
> 1250 µM

Provide measured TGI value, entry: "Cc1cc(C)nc(NS(=O)(=O)c2ccc(Nc3c4ccccc4nc4c(C(=O)N5CCN(CCO)CC5)cccc34)cc2)n1"
> 100 µM

Provide measured TGI value, entry: COC(=N)c1csc(C2OC(CO)C(O)C2O)n1 (stereo unspecified)
> 100 µM
